Biological target: human CB2 receptors (Homo sapiens)
Sequence (P34972 whole entry): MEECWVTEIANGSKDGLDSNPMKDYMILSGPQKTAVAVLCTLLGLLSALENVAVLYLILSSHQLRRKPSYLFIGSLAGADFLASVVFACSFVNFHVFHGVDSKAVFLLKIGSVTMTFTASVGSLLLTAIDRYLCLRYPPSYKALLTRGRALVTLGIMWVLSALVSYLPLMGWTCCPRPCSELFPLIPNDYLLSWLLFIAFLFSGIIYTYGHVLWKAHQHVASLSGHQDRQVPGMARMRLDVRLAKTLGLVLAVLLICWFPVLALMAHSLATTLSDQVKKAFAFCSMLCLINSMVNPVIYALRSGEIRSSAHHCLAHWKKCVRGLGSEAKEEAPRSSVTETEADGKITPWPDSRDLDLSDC
Format: binding
Settings: ratio of Ki to Ki of 1
outcome.measure: fold loss of CB2 affinity compared to 1 (fold)

Cc1ccc(Cn2cc(/C=C/[C@@H]3C(C)(C)[C@@H]4CC[C@@]3(C)C4)cc2-c2ccc(Cl)c(C)c2)cc1 [Compound 4] = 547
Cc1ccc(Cn2nc(C(=O)N[C@@H]3C[C@@H]4CC[C@@]3(C)C4(C)C)cc2-c2ccc(Cl)c(C)c2)cc1 [Compound 5] = 13
Cc1ccc(Cn2nc(/C=C/[C@@H]3C(C)(C)[C@@H]4CC[C@@]3(C)C4)cc2-c2ccc(Cl)c(C)c2)cc1 [Compound 2] = 236
Cc1cc(-c2cc(C(=O)N[C@@H]3C(C)(C)[C@@H]4CC[C@@]3(C)C4)nn2-c2ccccc2)ccc1Cl [Compound 6] = 42
